Sourced from ChEMBL document CHEMBL1157834

- Tested on: Toxoplasma gondii
- assay_protocol: Antimicrobial activity against wild-type Toxoplasma gondii RH infected in human CRL1634 cells assessed as intracellular parasite survival at 25 uM after 18 hrs by [5,6-[…]]uracil-based scintillation counting
- Assay type: functional

compound_smiles: OC[C@H]1C[C@@H](n2cnc3c(SCc4ccc(Cl)cc4)ncnc32)[C@H](O)[C@@H]1O
Activity (%): 0
//
compound_smiles: Cc1ccc(CSc2ncnc3c2ncn3[C@@H]2C[C@H](CO)[C@@H](O)[C@H]2O)cc1
Activity (%): 0
//
compound_smiles: Nc1ccc(S(=O)(=O)Nc2ncccn2)cc1
Activity (%): 53
//
compound_smiles: CCc1nc(N)nc(N)c1-c1ccc(Cl)cc1
Activity (%): 25
